Tested on: PPARg:RXRa (NR concentration 180 nM, RXRa partner concentration 90 nM)
Assay: PBM binding z-score (relative to random genomic background probes); higher = stronger binding; sequences stand for … in GC…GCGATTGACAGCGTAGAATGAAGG
test.readout: PBM binding z-score
A bare number is all that is needed in reply.

Recorded PBM binding z-score, per entry:
- residues: "GCAGACAGGTGCAACGCAGGTAACTCAGGGTGGC"
  PBM binding z-score: 0.119
- residues: "TCTAGTTGGTCACGGACGTCACACACGACGGGTA"
  PBM binding z-score: 1.24
- residues: "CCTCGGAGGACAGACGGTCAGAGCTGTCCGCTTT"
  PBM binding z-score: -0.705
- residues: "CCTTTCGGGTCACGAGGTTATAGCACGACGAGCG"
  PBM binding z-score: 7.34
- residues: "GCTGCTAGGTCCGGTTGGTCAGCTAACGGGTACG"
  PBM binding z-score: -0.571

Next sequence, PBM binding z-score to be filled in.
Consider the sequence shown here: ATATGTAGGTTAAGGGTTATTCAGGTTGGTTCGC What is its recorded PBM binding z-score?
10.4

###

Test system: RARb:RXRa (NR concentration 270 nM, RXRa partner concentration 90 nM)
Assay: PBM binding z-score (relative to random genomic background probes); higher = stronger binding; sequences stand for … in GC…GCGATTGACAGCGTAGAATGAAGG
Entry flag: MET if PBM binding z-score reaches 2; NOT MET if it does not.

- residues: "TCATATAGGTAATACAGGTGAAAGTTGGCATCTA"
  class.assignment: "NOT MET"

Identify whether the reported PBM binding z-score of the following sequence is 2 or greater: TCATAAAGGTAAACAGGTGAAAGTCCGTAAGTTA
NOT MET

Identify whether the reported PBM binding z-score of the following sequence is 2 or greater: TCTATTCGTTGATTAGGGCAACCGAAACAGCGGA
NOT MET

Identify whether the reported PBM binding z-score of the following sequence is 2 or greater: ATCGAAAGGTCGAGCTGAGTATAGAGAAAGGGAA
MET

###

System: RARb homodimer (NR concentration 270 nM)
Assay: PBM binding z-score (relative to random genomic background probes); higher = stronger binding; sequences stand for … in GC…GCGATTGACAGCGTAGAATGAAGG
test.readout: PBM binding z-score
A bare number is all that is needed in reply.

Recorded PBM binding z-score, per entry:
- residues: "ACCAGCAGGCCAAGTTTGGGTCACTCAAACAAAG"
  measured: 2.33
- residues: "GCTATTAGTTGAAAGGGCAAGCGAATGATTCTCG"
  measured: 1.71
- residues: "CGTCCAAGGTCAATGCTAGGTCTGTGAAAGCATT"
  measured: 3.89
- residues: "CGAACGAGGGCATGAGGTGATAGCAAATGCCGAT"
  measured: 1.11
- residues: "AGTCAAAGTTCATTTAGGTAACGTAAGATATGCT"
  measured: 3.77
- residues: "CCTACTGGGCCAAAAAGCTCATTGATGCCGATAA"
  measured: -0.842
- residues: "TAGCCTAGGTCATGCGAGCCAGTATAGTGTCGGC"
  measured: 2.67
- residues: "CCGACTGGGGCCAAGGTTACCATACTCAGTACGA"
  measured: 1.87

Next sequence, PBM binding z-score to be filled in.
Value wanted: PBM binding z-score (RARb homodimer (NR concentration 270 nM)) of entry TCATATAGGTAACACAGGTGAAAGTCGGCATCTA
1.12

This collection of values is drawn from the supplement of paper PMC6555819.
